Biological target: GLP-1R (Homo sapiens, UniProt P43220)
Construct: host or cells: GLP-1R CRE-bla CHO-K1 cells
Sequence (P43220 24-463): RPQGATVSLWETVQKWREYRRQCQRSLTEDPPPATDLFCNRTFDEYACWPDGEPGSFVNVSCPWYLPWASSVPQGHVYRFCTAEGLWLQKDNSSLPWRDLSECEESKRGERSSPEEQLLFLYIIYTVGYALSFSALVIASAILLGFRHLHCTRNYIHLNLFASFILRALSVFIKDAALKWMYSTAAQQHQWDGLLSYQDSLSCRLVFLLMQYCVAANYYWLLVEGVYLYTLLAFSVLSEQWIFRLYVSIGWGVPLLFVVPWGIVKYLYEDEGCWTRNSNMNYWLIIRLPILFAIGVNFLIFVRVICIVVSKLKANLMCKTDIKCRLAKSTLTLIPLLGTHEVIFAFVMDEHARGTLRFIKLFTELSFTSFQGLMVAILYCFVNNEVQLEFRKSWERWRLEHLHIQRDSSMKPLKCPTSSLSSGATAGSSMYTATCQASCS
Sequence (P01275 100-127 partner limits assumed): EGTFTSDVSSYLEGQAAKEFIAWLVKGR
Test: EC20 GLP-1(9-36) PAM cAMP assay: dose response of compound in the presence of fixed concentration of GLP-1(9-36)
Format: cell-based
Conditions: dose response of compound in presence of fixed concentration of GLP-1(9-36), GLP-1R CRE-bla CHO-K1 cells, read-out: EC20 GLP-1(9-36) PAM EC50
pEC50: −log10 of the molar value.
parameter: pEC50

* CCCCCCCOc1ccc(-c2cnc(-c3ccc(C[C@H](NC(=O)c4ccc(CCC)cc4)C(=O)N4CC[C@H](C(=O)O)C4)cc3)nc2)cc1 [Compound 853] | 5.60 to 6.10
* CCCCCCCOc1ccc(-c2cnc(-c3ccc(C[C@H](NC(=O)c4ccc(OCC(C)C)cc4)C(=O)N[C@H](C)C(=O)O)cc3)nc2)cc1 [Compound 829] | 5.00 to 5.30
* CCCCCCCOc1ccc(-c2cnc(-c3ccc(C[C@H](NC(=O)c4ccc(C(C)(C)C)cc4)C(=O)N[C@@H](CC(=O)NCC(=O)O)C(=O)O)cc3)nc2)cc1 [Compound 480] | 5.60 to 6.10
* CC(C)CCCOc1ccc(-c2cnc(-c3ccc(C[C@H](NC(=O)c4ccc(C(C)(C)C)cc4)C(=O)NCCC(=O)O)cc3)nc2)cc1 [Compound 458] | 5.60 to 6.10
* CCCCCCCOc1ccc(-c2cnc(-c3ccc(C[C@H](NC(=O)c4ccc(C(C)(C)C)s4)C(=O)N[C@@H](CC(=O)O)C(=O)NCCOC)cc3)nc2)cc1 [Compound 532] | > 6.10

Any idea what its pEC50 is? The molecule is CCCCCCCOc1ccc(-c2cnc(-c3ccc(C[C@H](NC(=O)c4ccc(C(C)(C)CC)cc4)C(=O)N4CC(C(=O)O)C4)cc3)nc2)cc1 [Compound 1121] 5.60 to 6.10

Origin of measurements: patent US10034886B2
